The values you see were collected from patent US12528767B2.

# system: Full length Human HDAC10 (Homo sapiens)
# Sequence (Q969S8 1-669): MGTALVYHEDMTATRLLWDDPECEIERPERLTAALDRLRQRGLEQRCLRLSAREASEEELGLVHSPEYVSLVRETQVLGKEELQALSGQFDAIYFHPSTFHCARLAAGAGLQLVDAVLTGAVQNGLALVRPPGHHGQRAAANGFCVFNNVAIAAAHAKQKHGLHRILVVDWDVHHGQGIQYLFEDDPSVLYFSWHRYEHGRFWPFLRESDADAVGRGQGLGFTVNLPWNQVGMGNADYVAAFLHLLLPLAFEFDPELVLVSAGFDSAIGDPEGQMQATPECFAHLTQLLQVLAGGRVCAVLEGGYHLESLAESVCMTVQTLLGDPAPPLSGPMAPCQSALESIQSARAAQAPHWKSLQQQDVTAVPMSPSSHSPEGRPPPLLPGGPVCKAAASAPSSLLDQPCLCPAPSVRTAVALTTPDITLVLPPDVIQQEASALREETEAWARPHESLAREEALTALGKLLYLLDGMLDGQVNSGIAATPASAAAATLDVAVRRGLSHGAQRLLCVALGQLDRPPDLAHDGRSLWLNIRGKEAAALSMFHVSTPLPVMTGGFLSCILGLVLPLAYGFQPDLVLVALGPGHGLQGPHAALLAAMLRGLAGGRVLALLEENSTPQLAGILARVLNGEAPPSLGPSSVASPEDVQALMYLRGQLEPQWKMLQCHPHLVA
readout.label: IC50

compound	IC50
O=C(NO)c1cc(F)c2c(c1)CCN1CCC[C@@H]21 (single isomer, unassigned) [compound 79]	10 to 100 µM
O=C(NO)c1cc(F)c2c(c1)CCN([C@@H]1CCC3(CCCCC3)C1)C2 (single isomer, unassigned) [compound 110]	10 to 100 µM
CC1(C)C[C@H]2Cc3c(F)cc(C(=O)NO)cc3CN2C1 (single isomer, unassigned) [compound 128]	> 100 µM
O=C(NO)c1cc(F)c2c(c1)CCN(CC1COC1)C2 [compound 27]	> 100 µM

Consider now this further compound.
I would be grateful if you could share the reported IC50 for O=C(NO)c1ccc(CN2CCC3(C2)C2CC4CC(C2)CC3C4)c(F)c1 (centres unmarked) [compound 78] .
> 100 µM
